biological target: 5'-AMP-activated protein kinase catalytic subunit alpha-2 (Rattus norvegicus); test: Activation of AMPK in rat IAR-20 cells assessed as phosphorylated acetyl CoA carboxylase level at 10 uM after 30 mins by Western blot analysis; assay type: cell-based
Calls of active or inactive are those of the source. The calls are words filed in the database; no cut-off is given here.

- structureString: "COc1cc(O)c(C)c(O)c1C(=O)CCc1ccc(O)cc1"
  Activity: "Active"
- structureString: "COc1c(O)c(C)c(O)c2c1OC[C@@H](Cc1ccc(O)cc1)C2=O"
  Activity: "Active"
- structureString: "Cc1c(O)c(C)c2c(c1O)C(=O)[C@H](Cc1ccc(O)cc1)CO2"
  Activity: "Active"
- structureString: "Cc1c(O)cc2c(c1O)C(=O)[C@H](Cc1ccc(O)cc1)CO2"
  Activity: "Active"
